# testTarget: human EGFR L858R+T790M+L718Q (Homo sapiens, UniProt P00533, L718Q/L858R/T790M)
# Sequence (P00533 25-1210 L718Q/T790M/L858R): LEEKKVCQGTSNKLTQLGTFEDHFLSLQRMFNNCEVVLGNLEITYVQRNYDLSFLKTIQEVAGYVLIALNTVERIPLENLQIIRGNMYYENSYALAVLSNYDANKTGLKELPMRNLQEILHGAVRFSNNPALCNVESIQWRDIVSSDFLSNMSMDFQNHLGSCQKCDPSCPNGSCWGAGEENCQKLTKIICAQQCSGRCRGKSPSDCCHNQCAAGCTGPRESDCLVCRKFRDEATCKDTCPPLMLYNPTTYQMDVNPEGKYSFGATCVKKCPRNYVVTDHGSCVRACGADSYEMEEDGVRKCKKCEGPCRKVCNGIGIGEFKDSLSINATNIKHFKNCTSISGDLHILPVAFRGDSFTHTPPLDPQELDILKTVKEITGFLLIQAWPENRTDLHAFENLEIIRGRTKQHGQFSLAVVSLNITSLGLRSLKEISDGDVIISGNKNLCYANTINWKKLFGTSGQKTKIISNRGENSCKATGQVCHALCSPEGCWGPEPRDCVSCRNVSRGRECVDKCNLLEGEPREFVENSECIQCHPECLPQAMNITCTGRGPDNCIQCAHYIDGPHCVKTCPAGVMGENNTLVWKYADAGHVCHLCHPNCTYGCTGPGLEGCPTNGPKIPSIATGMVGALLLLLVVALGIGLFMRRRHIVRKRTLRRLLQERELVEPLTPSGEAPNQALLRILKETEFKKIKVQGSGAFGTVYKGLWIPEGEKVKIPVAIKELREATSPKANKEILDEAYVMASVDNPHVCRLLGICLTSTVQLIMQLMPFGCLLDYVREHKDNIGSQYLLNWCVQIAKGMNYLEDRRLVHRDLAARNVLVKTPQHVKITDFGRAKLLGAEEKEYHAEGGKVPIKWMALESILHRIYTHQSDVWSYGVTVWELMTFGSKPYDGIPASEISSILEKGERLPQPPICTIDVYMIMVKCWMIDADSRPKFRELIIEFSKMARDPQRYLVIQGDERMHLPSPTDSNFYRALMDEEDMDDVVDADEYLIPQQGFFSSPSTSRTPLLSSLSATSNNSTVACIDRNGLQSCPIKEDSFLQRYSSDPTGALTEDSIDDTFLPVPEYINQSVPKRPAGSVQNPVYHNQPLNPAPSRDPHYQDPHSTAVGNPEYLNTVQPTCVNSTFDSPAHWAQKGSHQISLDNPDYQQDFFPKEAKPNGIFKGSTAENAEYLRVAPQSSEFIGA
# methodNotes: Intracellular EGFR phosphorylation, mutant EGFR forced expression system using HEK293 cells
# setupConditions: 6 hours incubation, p-EGFR (Tyr1068)/EGFR
recordedEndpoint: pIC50
// pIC50: -log10(molar conc.)

Identify measured pIC50 obtained with human EGFR L858R+T790M+L718Q (Homo sapiens, UniProt P00533, L718Q/L858R/T790M) for C=CC(=O)N[C@H]1C=C(C)c2c(-c3cnc4ccccc4c3)c3c(N)ncnc3n2C1 [Compound A] . 3.98

====

# testTarget: human EGFR L858R+T790M+L792H (Homo sapiens, UniProt P00533, L792H/L858R/T790M)
# Sequence (P00533 25-1210 T790M/L792H/L858R): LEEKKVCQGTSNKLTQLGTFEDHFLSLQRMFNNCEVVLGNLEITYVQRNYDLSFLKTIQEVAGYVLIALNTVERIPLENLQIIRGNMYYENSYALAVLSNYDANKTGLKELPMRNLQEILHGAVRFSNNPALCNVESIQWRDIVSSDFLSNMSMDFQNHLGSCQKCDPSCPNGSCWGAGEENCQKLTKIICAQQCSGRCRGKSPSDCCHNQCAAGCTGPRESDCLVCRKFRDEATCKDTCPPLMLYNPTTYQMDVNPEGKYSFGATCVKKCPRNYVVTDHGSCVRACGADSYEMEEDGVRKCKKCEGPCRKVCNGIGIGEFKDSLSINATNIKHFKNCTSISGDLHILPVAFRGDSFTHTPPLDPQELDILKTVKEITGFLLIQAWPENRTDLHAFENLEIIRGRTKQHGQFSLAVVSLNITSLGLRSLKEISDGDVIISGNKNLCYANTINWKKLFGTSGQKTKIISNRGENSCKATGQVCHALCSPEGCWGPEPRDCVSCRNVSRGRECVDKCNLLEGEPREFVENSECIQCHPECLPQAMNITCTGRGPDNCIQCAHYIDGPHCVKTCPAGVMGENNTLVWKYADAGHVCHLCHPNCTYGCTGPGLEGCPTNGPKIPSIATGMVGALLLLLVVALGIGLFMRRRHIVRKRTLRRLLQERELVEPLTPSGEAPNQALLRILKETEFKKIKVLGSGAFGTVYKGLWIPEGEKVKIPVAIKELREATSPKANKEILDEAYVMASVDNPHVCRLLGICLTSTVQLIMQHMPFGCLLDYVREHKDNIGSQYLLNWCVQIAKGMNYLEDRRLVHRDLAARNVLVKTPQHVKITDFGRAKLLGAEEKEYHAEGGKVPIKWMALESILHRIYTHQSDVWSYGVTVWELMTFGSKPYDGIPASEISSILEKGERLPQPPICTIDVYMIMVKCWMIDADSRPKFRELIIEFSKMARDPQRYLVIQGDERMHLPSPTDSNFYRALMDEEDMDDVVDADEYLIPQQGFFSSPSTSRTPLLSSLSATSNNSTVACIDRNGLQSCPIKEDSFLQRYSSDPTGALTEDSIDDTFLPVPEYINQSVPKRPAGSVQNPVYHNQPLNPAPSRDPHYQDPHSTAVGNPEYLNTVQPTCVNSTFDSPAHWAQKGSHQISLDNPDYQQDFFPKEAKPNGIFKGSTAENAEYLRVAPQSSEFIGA
# methodNotes: Intracellular EGFR phosphorylation, mutant EGFR forced expression system using HEK293 cells
# setupConditions: 6 hours incubation, p-EGFR (Tyr1068)/EGFR
recordedEndpoint: pIC50
Quick note: pIC50 means taking -log10 of the concentration in moles per liter.

Tell me its pIC50 given `C=CC(=O)N[C@H]1C=C(C)c2c(-c3cnc4ccccc4c3)c3c(N)ncnc3n2C1` as the entry. 4.82

meta.source: patent US12661356B2
